Kindly supply the reported IC50 values for the records listed here.
EXPERIMENTAL_TARGET: Glycogen synthase kinase-3 beta (Homo sapiens, UniProt P49841)
Sequence (P49841 whole entry): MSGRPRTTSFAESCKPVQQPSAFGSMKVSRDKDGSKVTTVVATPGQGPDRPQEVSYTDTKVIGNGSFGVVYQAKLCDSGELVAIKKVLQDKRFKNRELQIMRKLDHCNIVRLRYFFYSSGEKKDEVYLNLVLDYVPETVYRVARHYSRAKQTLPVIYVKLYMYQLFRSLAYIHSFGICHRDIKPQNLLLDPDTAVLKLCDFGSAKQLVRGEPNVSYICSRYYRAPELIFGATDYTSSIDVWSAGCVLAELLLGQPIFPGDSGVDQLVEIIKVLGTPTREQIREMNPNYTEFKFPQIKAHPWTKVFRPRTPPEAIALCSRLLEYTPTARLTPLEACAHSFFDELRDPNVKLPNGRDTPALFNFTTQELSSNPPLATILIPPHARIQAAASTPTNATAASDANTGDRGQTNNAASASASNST
ASSAY_OVERVIEW: Inhibition of recombinant human N-terminal His-tagged GSK-3beta expressed in Escherichia coli using glycogen synthase-2 as substrate and ATP measured after 30 mins by Kinase-Glo luminescent kinase assay

Dear reader, for each entry below, please note its IC50.
1. Cc1nc2ccccc2n1Cc1nnc(Nc2ccc(Br)cc2)s1
2. Cc1nc2ccccc2n1Cc1nnc(Nc2ccccc2)s1

1: 173 nM; 2: 157 nM

Dear reader, for each entry below, please note its IC50.
1. Cc1nc2ccccc2n1Cc1nnc(Nc2ccc(F)cc2)s1
2. Cc1nc2ccccc2n1CC(=O)NNC(=O)Cc1ccc(Cl)cc1
3. Cc1nc2ccccc2n1CC(=O)NNC(=O)c1c[nH]c2ccccc12
4. COc1ccc(CC(=O)NNC(=O)Cn2c(C)nc3ccccc32)cc1
5. Cc1nc2ccccc2n1Cc1nnc(Nc2ccccc2F)s1
6. Cc1nc2ccccc2n1Cc1nnc(Nc2ccccc2Br)s1
7. Cc1nc2ccccc2n1CC(=O)NNC(=O)c1ccc[nH]1

["134 nM", "131 nM", "148 nM", "379 nM", "76 nM", "190 nM", "124 nM"]

Dear reader, for each entry below, please note its IC50.
1. Cc1nc2ccccc2n1CC(=O)NNC(=O)Cc1ccc([N+](=O)[O-])cc1
2. Cc1nc2ccccc2n1CC(=O)NNC(=O)Cc1cc2ccccc2[nH]1
3. COc1ccc(Nc2nnc(Cn3c(C)nc4ccccc43)s2)cc1

["205 nM", "135 nM", "151 nM"]

Dear reader, for each entry below, please note its IC50.
1. COc1ccccc1Nc1nnc(Cn2c(C)nc3ccccc32)s1
2. Cc1nc2ccccc2n1CC(=O)NNC(=O)CCC(=O)c1ccc(Oc2ccccc2)cc1
3. COc1ccc(C(=O)CCC(=O)NNC(=O)Cn2c(C)nc3ccccc32)cc1
4. Cc1nc2ccccc2n1Cc1nnc(Nc2ccc(Cl)cc2)s1
5. Cc1nc2ccccc2n1Cc1nnc(Nc2ccc([N+](=O)[O-])cc2)s1
6. Cc1nc2ccccc2n1CC(=O)NNC(=O)C(=O)c1c[nH]c2ccccc12
7. Cc1nc2ccccc2n1Cc1nnc(Nc2ccccc2Cl)s1

184 nM
80 nM
561 nM
145 nM
107 nM
72 nM
122 nM

* * *

EXPERIMENTAL_TARGET: Glycogen synthase kinase-3 beta (Homo sapiens, UniProt P49841)
ASSAY_OVERVIEW: Inhibition of recombinant human N-terminal His-tagged GSK-3beta expressed in Escherichia coli using glycogen synthase-2 as substrate and ATP measured after 30 mins by Kinase-Glo luminescent kinase assay
EXPERIMENTAL_ENDPOINT: IC50
Value and unit, in that order.

Before answering, review these 3 worked examples.
What value of measured IC50 is listed for Cc1nc2ccccc2n1Cc1nnc(NC2CCCCC2)s1 ?
406 nM

What value of measured IC50 is listed for CCCCNc1nnc(Cn2c(C)nc3ccccc32)s1 ?
582 nM

What value of measured IC50 is listed for Cc1nc2ccccc2n1CC(=O)NNC(=O)Cc1cccc2ccccc12 ?
157 nM

Dear reader, for each entry below, please note its IC50.
1. Cc1nc2ccccc2n1CC(=O)NNC(=O)Cc1ccccc1
2. Cc1ccccc1CC(=O)NNC(=O)Cn1c(C)nc2ccccc21
3. CCOc1ccc(Nc2nnc(Cn3c(C)nc4ccccc43)s2)cc1

["105 nM", "92 nM", "293 nM"]

Value source: ChEMBL document CHEMBL3826872
